Recorded inhibition at 10 µM values for a group of compounds are listed next.
Molecular target: MAPK8 (JNK1) (Homo sapiens, UniProt P45983)
Sequence (P45983 whole entry, species assumed): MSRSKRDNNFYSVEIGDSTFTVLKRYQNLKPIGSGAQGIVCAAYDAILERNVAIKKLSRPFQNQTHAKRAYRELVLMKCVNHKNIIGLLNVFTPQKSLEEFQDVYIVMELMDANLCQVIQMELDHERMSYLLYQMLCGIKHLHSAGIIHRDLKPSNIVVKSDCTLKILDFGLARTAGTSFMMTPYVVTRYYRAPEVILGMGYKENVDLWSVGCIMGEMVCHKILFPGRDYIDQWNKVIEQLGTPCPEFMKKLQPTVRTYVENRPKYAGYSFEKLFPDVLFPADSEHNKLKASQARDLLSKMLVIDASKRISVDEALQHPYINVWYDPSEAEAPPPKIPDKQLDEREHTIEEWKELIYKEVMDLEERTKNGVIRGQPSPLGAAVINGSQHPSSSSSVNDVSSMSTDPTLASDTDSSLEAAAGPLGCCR
Test: FRET-based coupled-enzyme protein kinase inhibition assay
Assay type: biochemical
Details: compound at 10 µM, 1% DMSO
Description: A biochemical assay was then performed in order to measure the protein kinase inhibition. It employed a fluorescence-based coupled-enzyme format and was based on the differential sensitivity of phosphorylated and non-phosphorylated peptides to proteolytic cleavage. […] A significant benefit of this ratiometric method for quantitating reaction progress is the elimination of well-to-well variations in FRET-peptide concentration and signal intensities. […]
Remember to follow the number with its unit.

compound	measured target	inhibition at 10 µM
CN1CCN(CCNC(=O)OC[C@H]2O[C@@H](n3cnc4c(N)ncnc43)[C@H](O)[C@@H]2O)CC1	MAPK8 (JNK1) (Homo sapiens, UniProt P45983)	-2%
Nc1ncnc2c1ncn2[C@@H]1O[C@H](COC(=O)NCCN2CCCC2=O)[C@@H](O)[C@H]1O	MAPK8 (JNK1) (Homo sapiens, UniProt P45983)	5%
Nc1ncnc2c1ncn2[C@@H]1O[C@H](COC(=O)N2CCC[C@H]2CO)[C@@H](O)[C@H]1O	MAPK8 (JNK1) (Homo sapiens, UniProt P45983)	3%
Nc1ncnc2c1ncn2[C@@H]1O[C@H](COC(=O)N2CCN(C(=O)N3CCOCC3)CC2)[C@@H](O)[C@H]1O	MAPK8 (JNK1) (Homo sapiens, UniProt P45983)	5%
N#CCCN1CCN(C(=O)OC[C@H]2O[C@@H](n3cnc4c(N)ncnc43)[C@H](O)[C@@H]2O)CC1	MAPK8 (JNK1) (Homo sapiens, UniProt P45983)	8%

Endpoint output: inhibition at 10 µM of CN(C)CCNC(=O)OC[C@H]1O[C@@H](n2cnc3c(N)ncnc32)[C@H](O)[C@@H]1O . Value?
4%

Endpoint output: inhibition at 10 µM of Nc1ncnc2c1ncn2[C@@H]1O[C@H](COC(=O)NC[C@H](O)CO)[C@@H](O)[C@H]1O . Value?
13%

----------
Recorded inhibition at 10 µM values for a group of compounds are listed next.
Biological target: IRAK4 (Homo sapiens)
Sequence (Q9NWZ3 whole entry, species assumed): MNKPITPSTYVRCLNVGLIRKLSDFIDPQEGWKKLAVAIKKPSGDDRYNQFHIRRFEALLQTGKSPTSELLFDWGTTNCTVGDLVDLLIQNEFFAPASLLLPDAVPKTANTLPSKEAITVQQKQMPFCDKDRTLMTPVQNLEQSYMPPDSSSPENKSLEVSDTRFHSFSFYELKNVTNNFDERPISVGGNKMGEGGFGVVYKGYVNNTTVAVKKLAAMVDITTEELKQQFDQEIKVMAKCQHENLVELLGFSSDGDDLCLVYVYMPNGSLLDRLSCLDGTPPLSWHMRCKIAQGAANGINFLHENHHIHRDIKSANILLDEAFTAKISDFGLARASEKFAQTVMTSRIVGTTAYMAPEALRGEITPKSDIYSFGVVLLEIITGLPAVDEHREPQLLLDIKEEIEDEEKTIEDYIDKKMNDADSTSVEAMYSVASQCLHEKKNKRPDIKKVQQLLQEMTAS
Assay: FRET-based coupled-enzyme protein kinase inhibition assay
Assay type: biochemical
Conditions: compound at 10 µM, 1% DMSO
Description: A biochemical assay was then performed in order to measure the protein kinase inhibition. It employed a fluorescence-based coupled-enzyme format and was based on the differential sensitivity of phosphorylated and non-phosphorylated peptides to proteolytic cleavage. […] A significant benefit of this ratiometric method for quantitating reaction progress is the elimination of well-to-well variations in FRET-peptide concentration and signal intensities. […]
Write it as a number; the unit % goes unstated.

Worked cases, answers included:
compound	measured target	inhibition at 10 µM / %
CS(=O)(=O)N1CC2(CCN(C(=O)OC[C@H]3O[C@@H](n4cnc5c(N)ncnc54)[C@H](O)[C@@H]3O)CC2)c2ccccc21 [Compound C98]	IRAK4 (Homo sapiens)	-17
Nc1ncnc2c1ncn2[C@@H]1O[C@H](COC(=O)N2CCC[C@H]2CO)[C@@H](O)[C@H]1O [Compound C9]	IRAK4 (Homo sapiens)	-2
Nc1ncnc2c1ncn2[C@@H]1O[C@H](COC(=O)N2CCC(Cc3ccc(F)cc3)C2)[C@@H](O)[C@H]1O (stereo partly shown) [Compound C66]	IRAK4 (Homo sapiens)	-2
Nc1ncnc2c1ncn2[C@@H]1O[C@H](COC(=O)N2CCN(C(=O)N3CCOCC3)CC2)[C@@H](O)[C@H]1O [Compound C89]	IRAK4 (Homo sapiens)	-5
Nc1ncnc2c1ncn2[C@@H]1O[C@H](COC(=O)NCCCc2nc3ccccc3[nH]2)[C@@H](O)[C@H]1O [Compound C1]	IRAK4 (Homo sapiens)	-2
CN1CCN(CCNC(=O)OC[C@H]2O[C@@H](n3cnc4c(N)ncnc43)[C@H](O)[C@@H]2O)CC1 [Compound C46]	IRAK4 (Homo sapiens)	7

Pending compound:
Form field - read-out: inhibition at 10 µM; system: IRAK4 (Homo sapiens); submitted item: CC(C)N1CCC(NC(=O)OC[C@H]2O[C@@H](n3cnc4c(N)ncnc43)[C@H](O)[C@@H]2O)CC1 [Compound C19]
-3

----------
Recorded inhibition at 10 µM values for a group of compounds are listed next.
Molecular target: PIM1 (Homo sapiens)
Sequence (P11309 whole entry, species assumed): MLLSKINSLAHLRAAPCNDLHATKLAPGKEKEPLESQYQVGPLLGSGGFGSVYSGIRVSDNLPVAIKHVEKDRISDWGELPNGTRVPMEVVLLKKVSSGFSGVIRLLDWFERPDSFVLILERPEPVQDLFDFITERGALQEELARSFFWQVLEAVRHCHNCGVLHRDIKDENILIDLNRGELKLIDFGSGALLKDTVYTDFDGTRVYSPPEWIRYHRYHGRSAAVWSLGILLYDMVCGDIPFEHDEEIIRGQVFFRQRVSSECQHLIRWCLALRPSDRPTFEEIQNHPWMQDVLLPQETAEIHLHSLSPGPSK
Assay: FRET-based coupled-enzyme protein kinase inhibition assay
Assay type: biochemical
Details: compound at 10 µM, 1% DMSO
Write it as a number; the unit % goes unstated.

Worked cases, answers included:
compound	inhibition at 10 µM (%)
Nc1ncnc2c1ncn2[C@@H]1O[C@H](COC(=O)NC[C@H](O)CO)[C@@H](O)[C@H]1O [Compound C8]	11
Nc1ncnc2c1ncn2[C@@H]1O[C@H](COC(=O)N2CCN(CCc3ccccc3)CC2)[C@@H](O)[C@H]1O [Compound C26]	-5
Nc1ncnc2c1ncn2[C@@H]1O[C@H](COC(=O)N2CCS(=O)(=O)CC2)[C@@H](O)[C@H]1O [Compound C100]	-1

Endpoint output: inhibition at 10 µM of CN(C)CCNC(=O)OC[C@H]1O[C@@H](n2cnc3c(N)ncnc32)[C@H](O)[C@@H]1O [Compound C85] . Value?
0

Endpoint output: inhibition at 10 µM of CN1CCN(CCNC(=O)OC[C@H]2O[C@@H](n3cnc4c(N)ncnc43)[C@H](O)[C@@H]2O)CC1 [Compound C46] . Value?
8

Endpoint output: inhibition at 10 µM of CS(=O)(=O)N1CC2(CCN(C(=O)OC[C@H]3O[C@@H](n4cnc5c(N)ncnc54)[C@H](O)[C@@H]3O)CC2)c2ccccc21 [Compound C98] . Value?
6

----------
Recorded inhibition at 10 µM values for a group of compounds are listed next.
Molecular target: FLT3 (Homo sapiens, UniProt P36888)
Sequence (P36888 27-993): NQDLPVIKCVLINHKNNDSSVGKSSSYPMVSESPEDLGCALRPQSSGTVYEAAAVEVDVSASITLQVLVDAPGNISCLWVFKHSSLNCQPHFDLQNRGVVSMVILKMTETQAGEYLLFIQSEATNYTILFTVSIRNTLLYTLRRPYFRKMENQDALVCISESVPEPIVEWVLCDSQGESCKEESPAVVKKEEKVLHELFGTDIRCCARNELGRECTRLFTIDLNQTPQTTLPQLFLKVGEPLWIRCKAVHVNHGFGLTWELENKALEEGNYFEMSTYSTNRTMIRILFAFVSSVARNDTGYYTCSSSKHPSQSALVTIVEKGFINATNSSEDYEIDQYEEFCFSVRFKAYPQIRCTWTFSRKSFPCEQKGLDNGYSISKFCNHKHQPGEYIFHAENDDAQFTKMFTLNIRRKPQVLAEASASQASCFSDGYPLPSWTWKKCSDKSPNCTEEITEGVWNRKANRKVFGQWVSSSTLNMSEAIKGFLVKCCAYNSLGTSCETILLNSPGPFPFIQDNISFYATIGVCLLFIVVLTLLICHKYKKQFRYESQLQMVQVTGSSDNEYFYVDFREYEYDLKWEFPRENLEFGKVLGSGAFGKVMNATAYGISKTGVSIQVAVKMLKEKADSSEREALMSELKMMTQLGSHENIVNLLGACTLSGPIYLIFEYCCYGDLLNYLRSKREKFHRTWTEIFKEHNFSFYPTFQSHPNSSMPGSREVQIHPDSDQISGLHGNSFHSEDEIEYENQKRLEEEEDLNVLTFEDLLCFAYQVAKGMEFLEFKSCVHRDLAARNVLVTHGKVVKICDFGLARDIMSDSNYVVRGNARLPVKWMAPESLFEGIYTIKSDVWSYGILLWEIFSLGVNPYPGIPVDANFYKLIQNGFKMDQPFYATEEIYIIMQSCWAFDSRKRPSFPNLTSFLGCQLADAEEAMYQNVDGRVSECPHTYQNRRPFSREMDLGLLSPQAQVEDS
Assay: FRET-based coupled-enzyme protein kinase inhibition assay
Assay type: biochemical
Conditions: compound at 10 µM, 1% DMSO
Write it as a number; the unit % goes unstated.

compound	measured target	reported endpoint	measured
CN1CCN(CCNC(=O)OC[C@H]2O[C@@H](n3cnc4c(N)ncnc43)[C@H](O)[C@@H]2O)CC1 [Compound C46]	FLT3 (Homo sapiens, UniProt P36888)	inhibition at 10 µM	10
Nc1ncnc2c1ncn2[C@@H]1O[C@H](COC(=O)N[C@@H]2CCN(Cc3ccccc3)C2)[C@@H](O)[C@H]1O [Compound C10]	FLT3 (Homo sapiens, UniProt P36888)	inhibition at 10 µM	13

Pending compound:
Endpoint output: inhibition at 10 µM of C[C@@H](NC(=O)OC[C@H]1O[C@@H](n2cnc3c(N)ncnc32)[C@H](O)[C@@H]1O)c1ccc(Cl)cc1 [Compound C4] . Value?
19

----------
Recorded inhibition at 10 µM values for a group of molecules are listed next.
Target: DYRK3 (Homo sapiens)
Sequence (O43781 whole entry, species assumed): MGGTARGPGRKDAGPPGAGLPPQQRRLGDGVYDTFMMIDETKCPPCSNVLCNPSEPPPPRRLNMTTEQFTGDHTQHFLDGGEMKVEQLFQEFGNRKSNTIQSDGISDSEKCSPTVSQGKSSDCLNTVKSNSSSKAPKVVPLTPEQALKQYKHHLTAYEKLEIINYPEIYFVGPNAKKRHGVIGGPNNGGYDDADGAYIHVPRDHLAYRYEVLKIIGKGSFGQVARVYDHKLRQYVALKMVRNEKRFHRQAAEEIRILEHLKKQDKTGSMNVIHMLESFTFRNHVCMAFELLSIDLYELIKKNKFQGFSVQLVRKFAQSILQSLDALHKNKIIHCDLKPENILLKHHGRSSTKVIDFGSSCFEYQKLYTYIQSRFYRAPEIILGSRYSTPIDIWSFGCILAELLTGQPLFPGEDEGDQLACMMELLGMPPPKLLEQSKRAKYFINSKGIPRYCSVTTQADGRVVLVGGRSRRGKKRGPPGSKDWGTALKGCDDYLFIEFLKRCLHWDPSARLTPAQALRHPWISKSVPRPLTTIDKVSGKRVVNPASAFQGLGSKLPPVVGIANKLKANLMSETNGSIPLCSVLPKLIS
Experiment: FRET-based coupled-enzyme protein kinase inhibition assay
Type: biochemical
Conditions: compound at 10 µM, 1% DMSO
Write it as a number; the unit % goes unstated.

Worked cases, answers included:
molecule	inhibition at 10 µM / %
CN(C)CCNC(=O)OC[C@H]1O[C@@H](n2cnc3c(N)ncnc32)[C@H](O)[C@@H]1O	7
Nc1ncnc2c1ncn2[C@@H]1O[C@H](COC(=O)N2CCC(Cc3ccc(F)cc3)C2)[C@@H](O)[C@H]1O (some centres unmarked)	7
N#CCCN1CCN(C(=O)OC[C@H]2O[C@@H](n3cnc4c(N)ncnc43)[C@H](O)[C@@H]2O)CC1	6

Endpoint output: inhibition at 10 µM of Nc1ncnc2c1ncn2[C@@H]1O[C@H](COC(=O)NCCN2CCCC2=O)[C@@H](O)[C@H]1O . Value?
3

Endpoint output: inhibition at 10 µM of CN1CCN(CCNC(=O)OC[C@H]2O[C@@H](n3cnc4c(N)ncnc43)[C@H](O)[C@@H]2O)CC1 . Value?
4

Endpoint output: inhibition at 10 µM of CC(C)N1CCC(NC(=O)OC[C@H]2O[C@@H](n3cnc4c(N)ncnc43)[C@H](O)[C@@H]2O)CC1 . Value?
9

Endpoint output: inhibition at 10 µM of Nc1ncnc2c1ncn2[C@@H]1O[C@H](COC(=O)N2CCC[C@H]2CO)[C@@H](O)[C@H]1O . Value?
11

Endpoint output: inhibition at 10 µM of Nc1ncnc2c1ncn2[C@@H]1O[C@H](COC(=O)N2CCN(Cc3ccccc3)CC2CO)[C@@H](O)[C@H]1O (some centres unmarked) . Value?
9
